Recorded values, source PubChem BioAssay AID1625.

# assay_summary: up-regulation of insulin promoter-GFP reporter – imaging, high-content screening, mouse beta cells (AID 1625)
# experimental_conditions: MIN6 insulin promoter-GFP reporter, at 5 µM; stronger effect = higher value
Hit rate of the full screen: of about 190,000 compounds, about 570 (0.3%) were called active. Only a selection was taken, and actives are over-represented in it overall.
# binning rule on z-score: class 0: < -0.3; class 1: ≥ -0.3 and < 0.7; class 2: ≥ 0.7

Known results for molecules:
molecule | label_class
c1ccc2[nH]c(NCCN3CCOCC3)nc2c1 | class 1
Cc1ccc(-c2nnn(CC(=O)N(CCO)C(C(=O)NC(C)(C)C)c3ccncc3)n2)cc1 (stereo not drawn) | class 0
Cc1cc(/C=N/n2cnnc2)c(C)n1-c1cccc(C(=O)O)c1 | class 2
OC(c1ccccc1)C(CN1CCOCC1)c1ccccc1 (stereo not drawn) | class 1

For the record `COc1ccc(Cc2nnc(NC(=O)Cc3cccs3)s2)cc1` , report the class its z-score corresponds to.
class 2

For the record `CCc1ccc(S(=O)(=O)Nc2ccc(C)c(NS(C)(=O)=O)c2)cc1` , report the class its z-score corresponds to.
class 1

For the record `CCOc1c2ccc(C(=O)NCc3ccc4c(c3)OCO4)cc2nn1C` , report the class its z-score corresponds to.
class 1

For the record CCOCCCN(C(=O)Cn1nnc(-c2ccc(OC)c(OC)c2)n1)C(CC)C(=O)NC1CCCC1 (stereo not drawn) , report the class its z-score corresponds to.
class 2

For the record `CC(C)(C)c1cc(C(=O)NCc2cccnc2)ccn1` , report the class its z-score corresponds to.
class 2

For the record [O-][N+]12CCCCC1CCCC2CO (stereo not drawn) , report the class its z-score corresponds to.
class 1

For the record `CCOc1cccc(SCc2noc(C(=O)NC(C)C)c2C(=O)O)c1` , report the class its z-score corresponds to.
class 0

For the record `c1ccc(Nc2nc(N3CCOCC3)c3ccccc3n2)cc1` , report the class its z-score corresponds to.
class 0

For the record O=C(CSc1nnc(-c2ccc(NS(=O)(=O)c3ccccc3)cc2)o1)NCC1CCCO1 (stereo not drawn) , report the class its z-score corresponds to.
class 1

For the record `CCOc1c2ccc(C(=O)NCc3ccc(OC(F)(F)F)cc3)cc2nn1C` , report the class its z-score corresponds to.
class 2

For the record CC(C)OP(=O)(OC(C)C)C(Nc1ccccc1)c1cccc([N+](=O)[O-])c1 (stereo not drawn) , report the class its z-score corresponds to.
class 0

For the record O=C(Cc1ccccc1)N1N=C(c2ccncc2)CC1(O)C(F)(F)F (stereo not drawn) , report the class its z-score corresponds to.
class 0

For the record `Nc1nc(O)c(CC(=O)O)s1` , report the class its z-score corresponds to.
class 0

For the record COc1ccc(-c2nnn(CC(=O)N(CCO)C(C(=O)NC3CCCC3)c3ccc(F)cc3)n2)cc1 (stereo not drawn) , report the class its z-score corresponds to.
class 2

For the record `COc1cccc(NCCC(=O)c2cccc([N+](=O)[O-])c2)c1` , report the class its z-score corresponds to.
class 0

For the record CC1=NNC(=O)C1CC(=O)N/N=C/c1ccncc1 (stereo not drawn) , report the class its z-score corresponds to.
class 2

====

Catalogue of cell count readings, one per entry.
# assay_summary: up-regulation of insulin promoter-GFP reporter – imaging, high-content screening, mouse beta cells (AID 1625);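 as to cell count: total cells summed across four imaged fields per well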
# experimental_conditions: MIN6 insulin promoter-GFP reporter, at 5 µM; measured here: cytotoxicity, nuclei count
Screen size: about 190,000 compounds; about 570 (0.3%) were called active. The full list was thinned out, with actives kept by preference.
Write the answer as a number in cells, unit excluded.

compound | unit_descriptor | cell count
CCOc1cc2c(cc1OCC)C(C(=O)O)C(c1ccc(OC)c(O)c1)N(C)C2=O (centres undefined) | cells | 1550
CCCn1nc2cc(C(=O)NCc3ccccc3)ccc2c1OCC | cells | 1430
CCOc1c2ccc(C(=O)NCc3ccc(OC(F)(F)F)cc3)cc2nn1C | cells | 1370

Could you now consider this next compound?
Requested read-out: cell count. Entry: `Cc1cc(C(=O)N/N=C/c2ccc(N3CCOCC3)cc2)c(C)o1`
987

====

# assay_summary: up-regulation of insulin promoter-GFP reporter – imaging, high-content screening, mouse beta cells (AID 1625)
# experimental_conditions: MIN6 insulin promoter-GFP reporter, at 5 µM
About 570 (0.3%) of roughly 190,000 compounds were called active.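 The calls were made as follows: active = z-score above 3 at 5 µM with at least 500 cells counted in the well; inconclusive = wells under 500 cells, flagged as cytotoxic or low count; inactive = the rest.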 The list comes from a sample in which actives are over-represented; it also holds close analogues and randomly drawn compounds.
Please answer using one outcome listed in active, inactive

compound | label_class
CCOc1cc2c(cc1OCC)C(C(=O)O)C(c1ccc(OC)c(O)c1)N(C)C2=O (stereo not given) | inactive

Per the records of this test, what outcome belongs to CCOc1ccc(C2C(C(=O)O)c3ccccc3C(=O)N2CCN2CCOCC2)cc1 (stereo not given) ?
active

Per the records of this test, what outcome belongs to `Cc1ccc(OCC(=O)Nc2nnc(-c3ccco3)s2)cc1` ?
inactive

Per the records of this test, what outcome belongs to `Clc1ccc2nc(-c3ccccc3)nc(C(Cl)Cl)c2c1` ?
inactive

Per the records of this test, what outcome belongs to COc1ccc(C2C(C(=O)N3CCN(c4ccc(OC)cc4)CC3)c3ccccc3C(=O)N2C)cc1 (stereo not given) ?
inactive

Per the records of this test, what outcome belongs to `Cc1nn(CC2CC2)c(=O)n1N(C)c1ncc(C(F)(F)F)cc1Cl` ?
inactive

====

# assay_summary: up-regulation of insulin promoter-GFP reporter – imaging, high-content screening, mouse beta cells (AID 1625)
# experimental_conditions: MIN6 insulin promoter-GFP reporter, at 5 µM; stronger effect = higher value
In all, about 190,000 compounds went through this assay and about 570 (0.3%) were called active. Only a selection was taken, and actives are over-represented in it overall.
readout_kind: z-score
Please give only the number in your answer, with no unit.

Observe how each entry below is paired with its result.
compound | z-score
Cc1oc(-c2ccccc2F)nc1CS(=O)(=O)CC(=O)NCCCN(C)C1CCCCC1 | 0.14
CCOC(=O)C1=C(N)N2C(=O)C(C)SC2=C(C(=O)OCC)C1c1cc(OC)c(OC)c(OC)c1 (stereo not given) | -0.67
O=C(Nc1ccc(Cl)cc1)/C(=C1\CCCN1)[N+](=O)[O-] | 0.56
O=S(=O)(NCCc1csc(-c2ccccc2)n1)c1cccnc1 | 0.1
O=C(NN1C(=O)C2C(C1=O)C1C=CC2C12CC2)c1ccccc1Cl (stereo not given) | -0.03
O=c1c(-c2ccc(Cl)cc2)[n+]([O-])c2ccccc2n1OCc1nc2ccccc2[nH]1 | -1.15

Could you now consider this next compound?
Requested read-out: z-score. Entry: `CCOc1ccc(OCC)c(-c2c(=O)n(OCc3ccc(Cl)cc3)c3ccccc3[n+]2[O-])c1`
3.34

====

# assay_summary: up-regulation of insulin promoter-GFP reporter – imaging, high-content screening, mouse beta cells (AID 1625)
# experimental_conditions: MIN6 insulin promoter-GFP reporter, at 5 µM; stronger effect = higher value
Among all 190,000 compounds or so, about 570 (0.3%) were called active. The entries come from a sample that favours actives as a whole.
Rule: label 1 for z-score not less than 0.3, label 0 for anything less.

compound | label_class
CC1=C(C(N)=O)C(c2sccc2C)n2nnnc2N1 (stereo unspecified) | label 1

Answer whether z-score of `COc1cc(SC)ccc1C(=O)Nc1cc(C)ccn1` is greater than or equal to 0.3.
label 0

Answer whether z-score of `CCOC(=O)C1=NN(c2ccc(Cl)cc2)/C(=C/C2=NCCc3cc(OC)c(OC)cc32)S1` is greater than or equal to 0.3.
label 1

Answer whether z-score of `O=C(CN1CCN(Cc2ccccc2)CC1)NC(c1ccccc1)c1ccccc1` is greater than or equal to 0.3.
label 0

Answer whether z-score of `Cc1nc(Cl)c(C#N)c2c1CCCC2` is greater than or equal to 0.3.
label 1

Answer whether z-score of `O=S(=O)(NC(=S)Nc1ccccc1)c1ccc(F)cc1` is greater than or equal to 0.3.
label 0

====

# assay_summary: up-regulation of insulin promoter-GFP reporter – imaging, high-content screening, mouse beta cells (AID 1625)
# experimental_conditions: MIN6 insulin promoter-GFP reporter, at 5 µM; stronger effect = higher value
Hit rate of the full screen: of about 190,000 compounds, about 570 (0.3%) were called active. Only a selection was taken, and actives are over-represented in it overall.
readout_kind: z-score
Please give only the number in your answer, with no unit.

Observe how each entry below is paired with its result.
structure_string | test_value
CCCCNC(=O)c1onc(CSc2cccc(OC)c2)c1C(=O)O | -0.14
CCCCOc1ccc(CON(C(C)=O)C(C)=O)cc1Cl | -0.26

Could you now consider this next compound?
Requested read-out: z-score. Entry: `Cc1cc(C(=O)N/N=C/c2ccc(N3CCOCC3)cc2)c(C)o1`
0.32

====

# assay_summary: up-regulation of insulin promoter-GFP reporter – imaging, high-content screening, mouse beta cells (AID 1625);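 as to cell count: total cells summed across four imaged fields per well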
# experimental_conditions: MIN6 insulin promoter-GFP reporter, at 5 µM; measured here: cytotoxicity, nuclei count
The whole screen tested about 190,000 compounds, of which about 570 (0.3%) were called active. The sample holds actives, similar compounds and a random draw of the others, so the mix is not that of the screen.
readout_kind: cell count (cells)
Write the answer as a number in cells, unit excluded.

Observe how each entry below is paired with its result.
molecule | cell count (cells)
O=C(NCCCN1CCCCCC1)C1CC(=O)N(C2CCCC2)C1 (stereo not given) | 1560
O=c1c2cc(-c3ccccc3)sc2nc2n1N=C(c1cccs1)CS2 | 940
O=C(COC(=O)C12CC3CC(CC(O)(C3)C1)C2)NC12CC3CC(CC(C3)C1)C2 | 1360
CSc1ccc(CN2C(=O)NC3(CCCCCC3)C2=O)cc1 | 1210

Requested read-out: cell count. Entry: `CN1CCN(C(=O)/C(=C\c2cccs2)NC(=O)c2cccs2)CC1`
1240

Requested read-out: cell count. Entry: `Cc1cc(C)c2[nH]c(=O)c(CN(Cc3ccccc3)C(=S)NCCCN(C)C)cc2c1`
1260
